Exercise: state measured shrunken log2 fold change for each of the sequences provided.
system: Escherichia coli TOP10; assay: shrunken log2 fold change of peptide-encoding DNA abundance (4.5 h post-induction vs induction); higher = less antimicrobial activity (less host growth inhibition); conditions: time post-induction: 4.5 h; library: site-saturation at positions 5, 18, 19, 20
Numbers only.

Answered cases to consult:
>  <input.sequence>
RRIRDRPPRLPRPRPRPATHPRP

>  <system.under.test>
Escherichia coli TOP10

>  <shrunken log2 fold change>
0.335

$$$$
>  <input.sequence>
RRIRQRPPRLPRPRPRPLRDPRP

>  <system.under.test>
Escherichia coli TOP10

>  <shrunken log2 fold change>
0.082

$$$$
>  <input.sequence>
RRIRDRPPRLPRPRPRPSGWPRP

>  <system.under.test>
Escherichia coli TOP10

>  <shrunken log2 fold change>
0.558

$$$$
>  <input.sequence>
RRIRHRPPRLPRPRPRPLWNPRP

>  <system.under.test>
Escherichia coli TOP10

>  <shrunken log2 fold change>
-1.07

$$$$

Each sequence below has a recorded value; state its shrunken log2 fold change.
1. RRIRSRPPRLPRPRPRPYMSPRP
2. RRIRRRPPRLPRPRPRPQFMPRP
3. RRIRWRPPRLPRPRPRPPHTPRP
4. RRIRSRPPRLPRPRPRPTRKPRP
5. RRIRWRPPRLPRPRPRPNNHPRP
6. RRIRKRPPRLPRPRPRPDTMPRP
7. RRIRWRPPRLPRPRPRPGFGPRP
8. RRIRVRPPRLPRPRPRPMNHPRP

1. -0.355
2. -0.139
3. 0.494
4. 0.138
5. -0.588
6. 0.224
7. 0.651
8. -0.194

###

Give shrunken log2 fold change for every item shown.
tested on: Escherichia coli TOP10; assay: shrunken log2 fold change of peptide-encoding DNA abundance (4.5 h post-induction vs induction); higher = less antimicrobial activity (less host growth inhibition); conditions: time post-induction: 4.5 h; library: site-saturation at positions 5, 18, 19, 20;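 also: peptides expressed intracellularly from a pBAD plasmid library in pooled LB shake-flask culture, induced with 0.3% L-arabinose, DNA abundance read by NGS, three biological replicates, DESeq2 with apeglm shrinkage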
Answers are plain numbers.

Recorded results for 2 sequences are shown here.
>  <input.sequence>
RRIRCRPPRLPRPRPRPTANPRP

>  <shrunken log2 fold change>
0.0466

$$$$
>  <input.sequence>
RRIRIRPPRLPRPRPRPQYVPRP

>  <shrunken log2 fold change>
-0.0421

$$$$

Each sequence below has a reported value. Please supply its shrunken log2 fold change.
1. RRIRKRPPRLPRPRPRPAMKPRP
2. RRIRYRPPRLPRPRPRPANQPRP
3. RRIRPRPPRLPRPRPRPSCAPRP
4. RRIRHRPPRLPRPRPRPHPCPRP
5. RRIRQRPPRLPRPRPRPPEVPRP
6. RRIRHRPPRLPRPRPRPTRFPRP

1: 0.141; 2: -0.131; 3: 0.0332; 4: -0.612; 5: 0.0121; 6: 1.65

Hello, I would appreciate it if you could give shrunken log2 fold change for each entry below.
1. RRIRFRPPRLPRPRPRPNVCPRP
2. RRIRGRPPRLPRPRPRPEQTPRP
3. RRIRGRPPRLPRPRPRPGEMPRP
4. RRIRKRPPRLPRPRPRPWFDPRP
5. RRIRRRPPRLPRPRPRPQLQPRP
6. RRIRLRPPRLPRPRPRPWTWPRP
7. RRIRNRPPRLPRPRPRPTNRPRP
8. RRIRDRPPRLPRPRPRPFLNPRP

1: -0.0089; 2: 0.388; 3: 1.31; 4: -0.0566; 5: 0.413; 6: 0.0307; 7: -0.00917; 8: -0.243

Batch request: shrunken log2 fold change per item, same order as input.
1. RRIRRRPPRLPRPRPRPIYHPRP
2. RRIRYRPPRLPRPRPRPDKRPRP
3. RRIRHRPPRLPRPRPRPCRTPRP
4. RRIRQRPPRLPRPRPRPTHVPRP

-0.258
-0.168
0.00884
-0.0938

Give shrunken log2 fold change for all sequences that follow.
1. RRIRYRPPRLPRPRPRPHPYPRP
2. RRIRCRPPRLPRPRPRPIGEPRP
3. RRIRARPPRLPRPRPRPQINPRP
4. RRIRWRPPRLPRPRPRPQTPPRP
5. RRIRARPPRLPRPRPRPRILPRP
6. RRIRRRPPRLPRPRPRPFTAPRP
7. RRIRGRPPRLPRPRPRPLYSPRP

-0.449
-0.0453
-0.0458
1.07
0.323
0.128
0.225

Please state shrunken log2 fold change for every sequence in the list that follows.
1. RRIRVRPPRLPRPRPRPCCPPRP
2. RRIRDRPPRLPRPRPRPSAAPRP
3. RRIRERPPRLPRPRPRPLHKPRP
4. RRIRERPPRLPRPRPRPHFGPRP
5. RRIRRRPPRLPRPRPRPCLKPRP

1. -0.25
2. 1.02
3. -0.0653
4. -0.0492
5. -0.184

// each sequence listed below needs its shrunken log2 fold change
1. RRIRPRPPRLPRPRPRPYMLPRP
2. RRIRERPPRLPRPRPRPFIRPRP
3. RRIRYRPPRLPRPRPRPPAWPRP

1: -0.781; 2: -0.854; 3: -0.0773

Quick request: shrunken log2 fold change for each listed item, please.
1. RRIRVRPPRLPRPRPRPVLAPRP
2. RRIRSRPPRLPRPRPRPHLVPRP
3. RRIRYRPPRLPRPRPRPCPQPRP
4. RRIRDRPPRLPRPRPRPEPFPRP
5. RRIRDRPPRLPRPRPRPLALPRP
6. RRIRYRPPRLPRPRPRPAHTPRP

[0.239, -0.118, -0.0849, -0.137, 0.0811, -0.113]

Go through the items and report each one's shrunken log2 fold change.
1. RRIRRRPPRLPRPRPRPIPQPRP
2. RRIRARPPRLPRPRPRPGMGPRP

1: 0.336; 2: 0.639

Source of measurements: the supplement of paper PMC9112550
